Provide the reported GI50 of each item.
test system: SNB-78; assay: NCI tumour cell line growth inhibition, 48 h
Active and inactive are the calls of the source. Cut-off read from the data, not from the text of the source: active = GI50 up to about 1.1 µM and inactive = higher.

GI50 recorded for this compound, C[C@@H](c1ccccc1)N(CC#N)C1CCC[C@H]1O (stereo partly specified) , is > 100 µM (inactive)

GI50 recorded for this compound, CC(C)=CCCC1(C)C=Cc2c(ccc3c2[nH]c2cc(O)c(C)cc23)O1 (stereo unspecified) , is 13 µM (inactive)

GI50 recorded for this compound, O=C(NNc1ccccc1)/C(=C/c1ccc2c(c1)OCO2)NC(=O)c1ccccc1 , is > 100 µM (inactive)

GI50 recorded for this compound, Cc1noc2cccc(O)c12 , is > 100 µM (inactive)

GI50 recorded for this compound, COc1cc(/C=C/C2=C(C#N)C(=O)OC2(C)C)ccc1O , is > 100 µM (inactive)

GI50 recorded for this compound, COC(=O)C(=C/c1ccc(OC)cc1)/C(C(=O)O)=C(/C)c1ccccc1 , is > 100 µM (inactive)

GI50 recorded for this compound, Cn1cnc([N+](=O)[O-])c1Sc1nc2cccnc2[nH]1 , is > 100 µM (inactive)

GI50 recorded for this compound, CC1(C)C(=NN=C(N)N)C(C)(C)C1=NN=C(N)N , is > 100 µM (inactive)

GI50 recorded for this compound, Cc1ccc(-c2nnc(-c3nn(-c4ccccc4)c4nc5ccccc5nc34)o2)cc1 , is 19.8 µM (inactive)

GI50 recorded for this compound, COC(=O)C1CC(C(=O)OC)c2nc3cc([N+](=O)[O-])ccc3nc21 (stereo unspecified) , is > 100 µM (inactive)

GI50 recorded for this compound, CC1=CC(C)(c2c[nH]c3ccccc23)CC(C)(C)c2c1[nH]c1ccccc21 (stereo unspecified) , is 28.2 µM (inactive)

---

test system: SK-MEL-2; assay: NCI tumour cell line growth inhibition, 48 h
The source made the active and inactive calls. Rule as the data show it: active = GI50 up to about 1.1 µM and inactive = higher.
Provide the reported GI50 of each item.

GI50 recorded for this compound, CN(C)c1n/c(=N/c2cccc(Cl)c2)ss1 , is 16.9 µM (inactive)

GI50 recorded for this compound, Cc1cc(N(CCC#N)CCC#N)ccc1/C=N\c1ccc(C(=O)NN2C(=O)/C(=C/c3ccc(N(CCC#N)CCC#N)cc3)N=C2c2cc([N+](=O)[O-])ccc2Cl)cc1 , is > 100 µM (inactive)

GI50 recorded for this compound, Cc1ccc(-c2nnc(-c3nn(-c4ccccc4)c4nc5ccccc5nc34)o2)cc1 , is 16 µM (inactive)

GI50 recorded for this compound, COc1ccc(/C=C2\C[C@H]3[C@@H]4CC=C5C[C@@H](O)CC[C@]5(C)[C@H]4CC[C@]3(C)\C2=N\O)cc1 , is 15.6 µM (inactive)

GI50 recorded for this compound, O=C(O)CSc1ncccc1[N+](=O)[O-] , is > 100 µM (inactive)

GI50 recorded for this compound, O=C(c1ccccc1)C1C(C(=O)c2ccccc2)N1Cc1ccccc1 (stereo not given) , is 17.5 µM (inactive)

GI50 recorded for this compound, OC1c2ccccc2CC12Cc1ccccc1C2 (stereo not given) , is > 100 µM (inactive)

GI50 recorded for this compound, COc1ccc(-c2cc3c(c4cc(OC)ccc24)C(=O)OC3=O)cc1 , is > 100 µM (inactive)

GI50 recorded for this compound, COc1cccc(C2CC(=O)c3cc(N4CCCC4)ccc3N2)c1 (stereo not given) , is 0.0296 µM (active)

GI50 recorded for this compound, COc1ccc2c(=O)c3ccoc3n(CC=C(C)C)c2c1 [ACROPHYLLINE] , is 81.7 µM (inactive)

GI50 recorded for this compound, COc1ccc(-c2c(N)n(-c3cc(OC)cc(OC)c3)c(=O)c3cc([N+](=O)[O-])ccc23)cc1 , is > 100 µM (inactive)

GI50 recorded for this compound, CC(O)(C(=O)N(O)c1ccc(Cl)cc1)c1ccc(Cl)cc1 (stereo not given) , is 22.2 µM (inactive)

GI50 recorded for this compound, Cc1cc(NS(=O)(=O)c2ccc(NC(=O)c3cccc4c(N)c5ccccc5nc34)cc2)no1 , is 18.7 µM (inactive)

GI50 recorded for this compound, CCCCOP(C)(=O)C(NC(=O)OCC)(C(F)(F)F)C(F)(F)F (stereo not given) , is > 100 µM (inactive)

GI50 recorded for this compound, [N-]=[N+]=Nc1c(C=O)c(=O)n2c3c(cccc13)CCC2 , is > 10 µM (inactive)

GI50 recorded for this compound, CC(C)COP(=O)(OCC(C)C)C(NS(=O)(=O)c1ccccc1)(C(F)(F)F)C(F)(F)F , is 3.4 µM (inactive)

GI50 recorded for this compound, COc1ccccc1Nc1nc(N)nc(N)c1N=O , is > 100 µM (inactive)

GI50 recorded for this compound, CC(C)[Si](OC1=C(C(=O)Nc2ccccc2Cl)CCCCC1)(C(C)C)C(C)C , is > 100 µM (inactive)

GI50 recorded for this compound, Cc1nc2c(cc1OCc1ccccc1)C(=O)C1=C(C2=O)C2OC(=O)CC2OC1(C)C (stereo not given) , is 1.46 µM (inactive)

GI50 recorded for this compound, O=C(N/N=C/C=C/c1ccc([N+](=O)[O-])o1)c1ccc(Br)s1 , is 23.3 µM (inactive)
